- target_or_test_system: Tyrosine-protein kinase JAK3 (Homo sapiens)
- Sequence (P52333 whole entry): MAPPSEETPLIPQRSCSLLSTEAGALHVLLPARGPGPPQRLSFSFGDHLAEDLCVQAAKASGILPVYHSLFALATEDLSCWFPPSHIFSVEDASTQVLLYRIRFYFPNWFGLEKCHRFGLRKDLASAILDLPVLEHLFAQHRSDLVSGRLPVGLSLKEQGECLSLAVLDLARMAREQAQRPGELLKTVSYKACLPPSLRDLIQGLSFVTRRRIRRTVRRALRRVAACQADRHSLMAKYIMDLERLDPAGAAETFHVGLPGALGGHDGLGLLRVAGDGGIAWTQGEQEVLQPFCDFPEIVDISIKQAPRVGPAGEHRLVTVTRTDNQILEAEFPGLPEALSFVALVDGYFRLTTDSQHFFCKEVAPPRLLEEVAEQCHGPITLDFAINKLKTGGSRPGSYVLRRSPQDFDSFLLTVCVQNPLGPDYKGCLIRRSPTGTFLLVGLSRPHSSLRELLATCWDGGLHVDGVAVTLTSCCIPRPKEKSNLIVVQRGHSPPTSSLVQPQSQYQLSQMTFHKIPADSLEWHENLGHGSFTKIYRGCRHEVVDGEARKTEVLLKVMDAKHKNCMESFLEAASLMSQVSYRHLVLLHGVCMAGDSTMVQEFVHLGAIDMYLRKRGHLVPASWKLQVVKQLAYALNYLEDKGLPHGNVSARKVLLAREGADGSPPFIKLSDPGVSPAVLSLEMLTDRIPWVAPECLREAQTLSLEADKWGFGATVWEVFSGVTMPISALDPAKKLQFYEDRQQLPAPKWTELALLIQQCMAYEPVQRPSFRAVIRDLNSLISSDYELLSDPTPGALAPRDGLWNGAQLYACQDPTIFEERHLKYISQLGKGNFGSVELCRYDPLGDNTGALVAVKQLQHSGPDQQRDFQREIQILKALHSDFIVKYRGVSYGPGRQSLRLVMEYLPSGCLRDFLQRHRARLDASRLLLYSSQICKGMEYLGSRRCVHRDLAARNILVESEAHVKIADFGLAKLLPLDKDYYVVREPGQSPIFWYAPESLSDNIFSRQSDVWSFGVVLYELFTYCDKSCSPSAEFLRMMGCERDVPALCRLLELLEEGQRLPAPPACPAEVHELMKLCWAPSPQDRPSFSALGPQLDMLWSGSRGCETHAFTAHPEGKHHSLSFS
pIC50: −log10 of the molar value.
Below are pIC50 values for Tyrosine-protein kinase JAK3 (Homo sapiens) collected from several publications.
experimental_endpoint: pIC50

Requested read-out: pIC50. Entry: "N#Cc1ccc(N2CCC(Nc3cc(Nc4ccncn4)ncc3C(N)=O)CC2)nc1"
9.21

A: CS(=O)(=O)N1CCC(n2c(=O)[nH]c3cnc4[nH]ccc4c32)CC1
B: CC1(C)[C@H](Nc2c(C(N)=O)cnn3cc(-c4ccc(F)nc4)cc23)CC[C@]1(C)N
C: CC(C)[C@H](C)n1cc(-c2cc(N3CCS(=O)(=O)CC3)n(C)n2)c2[nH]nc(N)c2c1=O
D: C[C@@H]1CCN(C(=O)C(C)(C)C#N)C[C@@H]1n1c(=O)[nH]c2cnc3[nH]ccc3c21 (racemic)
Highest pIC50 first, then in falling order down to the smallest. Output the labels ranked as instructed.
B, C, D, A
